# %Inh annotations
system: TESK1; conditions: concentration: 1 μM,replicates: in singlicate; n = 1;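 also: KINOMEscan kinase panel screen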
// note: answer is a bare numeric in %

CS(=O)(=O)Nc1ccc(-c2ccnc3[nH]ccc23)cc1 [GSK993273] ... 4
COc1cc2ncn(-c3cc(OCC4CCCCC4)c(C(N)=O)s3)c2cc1OC [GSK204559] ... 18
Cc1ccc(Nc2ccnc(Nc3ccc4c(c3)CS(=O)(=O)C4)n2)cc1O.Cl [GW579362] ... 53
OCCn1cc(-c2cnc3nnn(Cc4ccc5ncccc5c4)c3n2)cn1 ... 0
C[C@@H](Oc1cc(-n2cnc3cc(-c4cnn(C)c4)ccc32)sc1C(N)=O)c1ccccc1Cl [GSK580432] ... 37

Prompt: Please give the measured %Inh for this compound: Cc1ccn2nc(-c3ccc(F)cc3)c(-c3ccncc3)c2c1.Cl [GW457859]
Response: 34

Prompt: Please give the measured %Inh for this compound: "CC(=O)Nc1ccc(-c2cc3ncnc(SCC(=O)O)c3s2)cc1"
Response: 6

Prompt: Please give the measured %Inh for this compound: "O=C(Nc1ccc(Oc2ccc3nc(NC(=O)C4CC4)cn3n2)c(F)c1)c1cccn(-c2ccccc2)c1=O"
Response: 17

Prompt: Please give the measured %Inh for this compound: "Cn1ccc2ncnc(Oc3ccc(NC(=O)Nc4cc(C(C)(C)C)on4)c(Cl)c3)c21"
Response: 0

Prompt: Please give the measured %Inh for this compound: O=C(Nc1n[nH]c2cc(-c3ccco3)ccc12)C1CC1 [SB-737447]
Response: 0

Prompt: Please give the measured %Inh for this compound: "Cn1ccc2ncnc(Oc3ccc(NC(=O)Nc4cccc(C(F)(F)F)c4)c(Cl)c3)c21"
Response: 0

Prompt: Please give the measured %Inh for this compound: CNC(=O)c1ccccc1Nc1nc(Nc2cccc(CS(C)(=O)=O)c2)ncc1C.O=CO [GSK1520489]
Response: 64

Prompt: Please give the measured %Inh for this compound: Cl.Cl.NC[C@H](CC1CCCCC1)NC(=O)c1ccc(-c2ccnc3[nH]ccc23)s1 [GSK1581428]
Response: 0

Prompt: Please give the measured %Inh for this compound: "O=C(NOCC1CC1)c1cc(Br)c(F)c(F)c1Nc1ccc(I)cc1Cl"
Response: 0

Prompt: Please give the measured %Inh for this compound: CN(c1ccc2c(c1)nc(NCc1ccc(F)cc1)n2C)c1ccnc(Nc2ccc(CS(C)(=O)=O)cc2)n1.Cl [GW813244]
Response: 4

====

test system: PIK4CB; construct: gene PI4KB; conditions: concentration: 1 μM,replicates: in singlicate; n = 1
ASSAY_ENDPOINT: %Inh (%)
// note: answer is a bare numeric in %

Use these answered entries as a reference point.
CS(=O)c1ccc(-c2coc3ccc(-c4n[nH]c(=O)o4)cc23)cc1 (centres unmarked) ... 43
Cn1ccc2ncnc(Oc3ccc(NC(=O)Nc4ccnc(C(F)(F)F)c4)c(Cl)c3)c21 ... 0
CCN1CCN(CCCC(=O)Nc2n[nH]c3nc(-c4ccc(O)cc4)c(Br)cc23)CC1 [SB-731579] ... 16
Cn1ccc2ncnc(Oc3ccc(NC(=O)Nc4cnn(C(C)(C)C)c4)c(Cl)c3)c21 ... 0
Cc1cccc(-c2nc(Nc3ccncc3)c3sccc3n2)n1 [GW869641] ... 31

Prompt: Please give the measured %Inh for this compound: "O=C(Nc1cccc(C(F)(F)F)c1)c1cccc(Oc2ccc3nccn3n2)c1"
Response: 39

Prompt: Please give the measured %Inh for this compound: O=C(NCC1CC1)c1ccc(-c2cc(C(=O)NC3CC3)ccc2F)cc1 [GW810445]
Response: 0

Prompt: Please give the measured %Inh for this compound: Cl.Nc1n[nH]c2cc(-c3ccccn3)ccc12 [GSK2189892]
Response: 0
